tested on: PHDF—primary human dermal fibroblasts; assay: MTT cell viability assay; assay type: cell-based; conditions: Homo sapiens, Fibroblast; 48 h incubation; read-out: IC50 48 h
Recorded metric: IC50 (µM)
State the answer as a number, implicitly in µM.

[Q] Request the reported IC50 associated with F[B-]1(F)OC(/C=C/c2ccc(OCCN3CCOCC3)cc2)=CC(/C=C/c2ccc(OCCN3CCOCC3)cc2)=[O+]1
[A] 28.4

* * *

Property: IC50; scope: individual molecules
test system: MRC-5—lung fibroblasts; experiment: MTT cell viability assay; type: cell-based, human; details: Homo sapiens, Fibroblast; 24 h incubation; read-out: IC50 24 h

1) C[N+]1(CCOc2ccc(C=CC3=CC(C=Cc4ccc(OCC[N+]5(C)CCOCC5)cc4)=[O+][B-](F)(F)O3)cc2)CCOCC1 [Compound 3]
> 50 µM

Proceed to the following item.
[Q] Fill in the recorded IC50 for this molecule, with MRC-5—lung fibroblasts as test system: F[B-]1(F)OC(/C=C/c2ccc(OCCN3CCOCC3)cc2)=CC(/C=C/c2ccc(OCCN3CCOCC3)cc2)=[O+]1 [Compound 2]
[A] > 50 µM
